The measured values listed here are drawn from patent US6410775.

The binders listed here are annotated with their IC50.
target: ACA-6501 aPL antibody; assay: competitive ELISA I50; antibody not given, ACA-6501 serum on CL/β2-GPI assumed (Ex. 4B)
Square brackets hold non-standard residues; d marks the D form. Ends that are not written are not given here. NMeL = CN[C@@H](CC(C)C)C(=O)O; Phg = N[C@H](C(=O)O)c1ccccc1
measure: IC50 (µg/mL)

[
  {
    "binder": "CLPVLGKLC [3G3 conformational scan 12 (Pro scan): …]",
    "units": "µg/mL",
    "test-result": 340
  },
  {
    "binder": "CLGVLG[Phg]LC (not fully specified (bridges); printed as CLGVLG-pG-LC; cysteine pairing not given here) [3G3 conformational scan 23: CLGVLG-pG-LC]",
    "units": "µg/mL",
    "test-result": 230
  },
  {
    "binder": "XLGVLGKLC (homocysteine (Hc) at position 1; cyclic thioether) [HCTE, LJP 699 (cyclic thioether analog of 3G3, Hc-LGVLGKL-C)]",
    "units": "µg/mL",
    "test-result": 46
  },
  {
    "binder": "CL[Phg]VLGKLC (not fully specified (bridges); cysteine pairing not given here) [3G3 conformational scan 19: CL-pG-VLGKLC]",
    "units": "µg/mL",
    "test-result": 70
  },
  {
    "binder": "CLGVLGPLC [3G3 conformational scan 16 (Pro scan): …]",
    "units": "µg/mL",
    "test-result": 160
  },
  {
    "binder": "CLGVLGK[NMeL]C (not fully specified (bridges); cysteine pairing not given here) [3G3 N-Me amino acids 8: CLGVLGK-nL-C]",
    "units": "µg/mL",
    "test-result": 240
  }
]
